# Tested on: Escherichia. coli TolC
# measurement description: antibacterial MIC, microtiter dilution
# condition info: Escherichia coli, read-out: Minimal inhibitory concentration, E. coli W3110 TolC disruption mutant; Mueller Hinten
MIC by entry:
Numeric only. Scale: µM

>>> reading("C#CCCCCCCCCCOC1OC(C)CC(N(C)C)C1O (centres unmarked) [Compound 18]")
400
>>> reading("CC1CC(N(C)C)C(O)C(OC2CCCCCCCCCCCCC2)O1 (centres unmarked) [Compound 10]")
50
>>> reading("CC[C@H]1OC(=O)[C@H](C)[C@@H](O[C@@H]2OC(C)CC(C)C2C)[C@@H](C)C[C@@H](C)C(=O)/C=C/[C@H]1C (some centres unmarked) [Compound 1, YC-17, reference compound]")
100
>>> reading("CC[C@H]1OC(=O)[C@H](C)[C@@H](O[C@@H]2O[C@H](C)C[C@H](N(C)C)[C@H]2O)[C@@H](C)C[C@@H](C)C(=O)/C=C/[C@]1(C)O [Compound 2, methymycin, reference compound]")
50
>>> reading("CC1CC(N(C)C)C(O)C(OC2CCCCCCCCCCCC2)O1 (centres unmarked) [Compound 8]")
50

Read the next record carefully.
# MIC (molecule: CC1CC(N(C)C)C(O)C(OC2CCCCCCCCCCCCCC2)O1 (centres unmarked) [Compound 12] ) is 50

====

# Test system: Deinococcus radiodurans
# measurement description: antibacterial MIC, microtiter dilution
# condition info: 60 h, read-out: Minimal inhibitory concentration, Deinococcus radiodurans, Special media, 30° C.
observed property: MIC

// known answers, use as guide
>>> reading("C[C@@H]1C[C@H](N(C)C)[C@@H](O)[C@H](OC2CCCCCCCC(O)CCCC2)O1 (some centres unmarked) [Compound 8-C6OH-a]")
"> 400 µM"
>>> reading("CCCCCCC#CCCOC1OC(C)CC(N(C)C)C1O (centres unmarked) [Compound 17]")
"> 400 µM"
>>> reading("OC1CCCCCCCCCCCC1 [Cyclotridecanol, reference compound]")
"> 400 µM"
>>> reading("OC1CCCCCCCCCCC1 [Cyclododecanol, reference compound]")
"> 400 µM"
>>> reading("OC1CCCCCCCCCCCCCC1 [Cyclopentadecanol, reference compound]")
"> 400 µM"

The compound CC1CC(N(C)C)C(O)C(OC2CCCC3CCCCC32)O1 (centres unmarked) [Compound 14] showed MIC equal to > 400 µM

Data point: C#CCCCCCCCCCOC1OC(C)CC(N(C)C)C1O (centres unmarked) [Compound 18] ; MIC = > 400 µM

Record CC1CC(N(C)C)C(O)C(OC2CCCCC2)O1 (centres unmarked) [Compound 13] , field MIC: > 400 µM
